- System: DU-145
- Assay Summary: Cytotoxicity against human DU145 cells assessed as reduction in cell viability incubated for 48 hrs by xCELLigence RTCA analysis
- Assay type: functional, cell-based
- Assay Context: DU-145, 48 h
Recorded pIC50 by entry
The scale used: pIC50 is minus the common logarithm of the concentration in molar units.

Input COc1c2c(c(C)c3c1C(=O)OC3)O[C@@]1(C)C[C@]3(O)OC[C@]4(C)O[C@@]5(OC)C[C@@H](OC(C)=O)[C@](C)([C@H]1C2)[C@]43O5 , output reported pIC50. 4.28

Input COc1c2c(c(C)c3c1C(=O)OC3)O[C@@]1(C)C[C@]3(O)OC[C@]4(C)O[C@@]5(OC)CC[C@](C)([C@H]1C2)[C@]43O5 , output reported pIC50. 4.14
